# Kd annotations
Target: T1, soluble Macaca fascicularis CTLA-4 expressed with a C-terminal myc-myc-polyhistidine tag (Macaca fascicularis)
T1 construct: soluble protein; also called mf CTLA-4.mmh; mfCTLA4.mmh
T1 chain: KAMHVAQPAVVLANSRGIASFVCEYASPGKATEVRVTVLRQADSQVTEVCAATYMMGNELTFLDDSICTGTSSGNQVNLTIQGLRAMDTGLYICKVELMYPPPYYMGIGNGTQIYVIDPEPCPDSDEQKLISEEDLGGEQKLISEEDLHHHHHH
Assay: SPR, mAb capture, 25 C
endpoint.label: Kd (nM)

{"columns": ["binder", "unit.label", "experimental.value"],
 "data": [
  ["H1H19269P (antibody, human IgG1, V domains shown) VH: EVQLVESGGGLVQPGGSLKLSCAASGFTFSGSAMHWVRQASGKGLEWVGRIRGKANSFATAYSASVKGRFTISRDDSKNTASLQMNSLRTEDTAVYFCTREDQQLVRPYYYHYGMDVWGQGTTVTVSS VL: DIQMTQSPSSLSASVGDRVTITCRTSQSITNYLNWYQQKPGKAPKLLIYATASLQSGVPSRFSGSGSETDFTLTISSLQPEDFATYYCQQSYSTPLTFGGGTKVEIK", "nM", 1.22],
  ["H1H19281P (antibody, human IgG1, V domains shown) VH: QVQLVESGGGVVQPGRSLRLSCAASGLTFSYYGMHWVRQAPGKGLEWVAVISYDGSNKYYADSVKGRFTISRDNSKNTLYLQMNSLRAEDAAVYYCAKDLGGDDYYGMDVWGQGTTVTVSS VL: EIVLTQSPGTLSLSPGERATLSCRASQSVSRTYLAWYQQKPGQAPRLLIYGAFSRATGIPDRFSGSGSGTDFTLTISRLEPEDFAVYYCQQYGSSPYTFGQGTKLEIK", "nM", 2.14],
  ["H1H19303P (antibody, human IgG1, kappa, V domains shown, also called REGN4659) VH: EVQLVESGGGLVQPGGSLRLSCAASGFTFSNYEMSWVRQAPGKGLEWVSSIRTSGTTKYYADSMKGRFTISRDNAKNSLYLQMNSLRAEDTAVYYCAGGGTFLHYWGQGTLVTVSS VL: DIQMTQSPSSVSASVGDRVTITCRASQGIASYLAWYQQKPGKAPKLLIYAASSLQTGVPSRFSGSGYGTDFTLTISSLQPEDFATYYCQQAKSFPMYTFGQGTKLEIKR", "nM", 15.7],
  ["H1H19284P (antibody, human IgG1, V domains shown) VH: EVQLVESGGGLVQPGGSLRLSCAASGFTLSNYVMTWVRQAPGKGLEWVSAISGRGGNSYYADSVKGRFSISRDHSKNTLYLQVNSLRAEDTAVYYCAKAERGYSYGFNWFDPWGQGTLVTVSS VL: DIQMTQSPSSVSASAGDRVTITCRASQGISSWLAWYQQKPGKAPKLLIYAASSLQSGVPSRFSGSGSGTDFTLTISSLQPEDFASYYCQQGNNFPLTFGGGTKVEIK", "nM", 1.57]
]}
